biological target: human GPR4 (hGPR4) (Homo sapiens); construct: expressed in transfected cells; host or cells: HeLa (ATCC CCL-2), lentiviral transduction, pLX317; assay: cAMP detection in HeLa expression cell line, hGPR4; format: cell-based; conditions: GPR4 EC50, second pair of columns; pH 7.2, 30 min
Sequence (P46093 whole entry): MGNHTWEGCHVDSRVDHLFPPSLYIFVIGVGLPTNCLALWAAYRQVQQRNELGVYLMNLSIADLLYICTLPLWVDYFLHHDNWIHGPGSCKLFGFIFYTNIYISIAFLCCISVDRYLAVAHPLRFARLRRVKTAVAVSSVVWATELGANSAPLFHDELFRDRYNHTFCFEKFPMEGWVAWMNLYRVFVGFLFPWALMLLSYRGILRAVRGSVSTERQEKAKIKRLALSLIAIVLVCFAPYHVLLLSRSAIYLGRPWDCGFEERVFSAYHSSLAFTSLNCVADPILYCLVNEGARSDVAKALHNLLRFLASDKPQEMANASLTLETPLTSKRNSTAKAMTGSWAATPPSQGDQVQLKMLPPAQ
pEC50: −log10 of the molar value.
value.kind: pEC50

molecule	tested.system	reported.value
Cc1ccc(NC(=O)c2cnn3c(O)cc(-c4ccc(F)c(Cl)c4)nc23)cc1	human GPR4 (hGPR4) (Homo sapiens)	6.16

---

target: mGPR65 (Mus musculus, UniProt Q61038); construct: expressed in transfected cells; host or cells: HeLa (ATCC CCL-2), lentiviral transduction, pLX317; test: cAMP detection in HeLa expression cell line, mGPR65; assay type: cell-based; conditions: 3rd mGPR column pair; NA = no activity; read-out: mGPR EC50
Sequence (Q61038 whole entry): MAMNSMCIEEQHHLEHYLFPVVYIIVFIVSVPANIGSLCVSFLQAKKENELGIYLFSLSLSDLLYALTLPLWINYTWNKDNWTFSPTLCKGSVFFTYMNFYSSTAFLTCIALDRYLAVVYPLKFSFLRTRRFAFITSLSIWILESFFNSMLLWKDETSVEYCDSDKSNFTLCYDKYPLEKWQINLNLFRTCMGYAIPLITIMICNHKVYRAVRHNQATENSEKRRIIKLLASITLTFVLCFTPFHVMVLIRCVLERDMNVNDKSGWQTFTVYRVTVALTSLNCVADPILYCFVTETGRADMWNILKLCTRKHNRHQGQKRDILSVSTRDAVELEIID

compound	EC50, nM
COCc1ccc(-c2cc(O)n3ncc(C(=O)NCc4ccc(C)cc4)c3n2)cc1	1070
COc1cccc(Cc2cc(O)n3ncc(C(=O)Nc4ccc(C)cc4)c3n2)c1	425
CCS(=O)(=O)c1ccc(NC(=O)c2cnn3c(O)cc(-c4ccc(COC)cc4)nc23)cc1	4470
Cc1ccc(NC(=O)c2cnn3c(O)cc(C(C)Cn4nccc4C)nc23)cc1 (stereo not shown)	1190

---

Emax values by entry
target: hGPR65 (Homo sapiens, UniProt Q8IYL9); construct: expressed in transfected cells; host or cells: HeLa (ATCC CCL-2), lentiviral transduction, pLX317; experiment: cAMP detection in HeLa expression cell line, hGPR65; assay type: cell-based; conditions: HeLa, 2nd hGPR column pair; relative to 100uM forskolin (100%) and DMSO (0%); NA = no activity; read-out: hGPR Max Activity %
Sequence (Q8IYL9 whole entry): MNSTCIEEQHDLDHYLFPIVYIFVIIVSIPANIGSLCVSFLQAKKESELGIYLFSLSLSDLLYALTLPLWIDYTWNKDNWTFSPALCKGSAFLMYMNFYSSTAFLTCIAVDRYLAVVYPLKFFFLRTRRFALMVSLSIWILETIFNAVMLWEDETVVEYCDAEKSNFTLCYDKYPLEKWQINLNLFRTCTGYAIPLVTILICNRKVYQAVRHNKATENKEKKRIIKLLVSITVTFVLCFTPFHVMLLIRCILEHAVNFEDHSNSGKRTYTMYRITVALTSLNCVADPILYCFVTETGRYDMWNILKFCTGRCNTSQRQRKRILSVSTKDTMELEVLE
value.kind: Emax (%)

molecule	reported.value
Cc1ccc(NC(=O)c2cnn3c(O)cc(-c4ccc(COC(C)C)cc4)nc23)cc1Cl [BRD5079]	82.5
Cc1ccc(NC(=O)c2cnn3c(O)cc(-c4ccc(COC(C)C)cc4)nc23)nc1 [BRD5075]	78.6
Cc1ccc(NC(=O)c2cnn3c(O)cc(-c4ccc(C(F)(F)F)cc4)nc23)cc1 [BRD5668]	70.8
Cc1ccc(NC(=O)c2cnn3c(O)cc(-c4ccc5ccccc5c4)nc23)cc1 [BRD7102]	72.5
Cc1ccc(NC(=O)c2cnn3c(O)cc(-c4ccc(COC(C)C)cc4)nc23)cn1 [BRD5071]	60.4
COCc1ccc(-c2cc(O)n3ncc(C(=O)Nc4ccc(OC)cc4)c3n2)cc1 [BRD5326]	82.7
COCc1ccc(-c2cc(O)n3ncc(C(=O)Nc4cccc(C)c4)c3n2)cc1 [BRD1946]	76.2
Cc1ccc(NC(=O)c2cnn3c(O)cc(-c4cnc(N5CCN(C)CC5)c(Cl)c4)nc23)cc1 [BRD5069]	1.75
Cc1ccc(NC(=O)c2cnn3c(O)cc(-c4ccc(N5CCC(=O)CC5)cc4)nc23)cc1 [BRD8536]	63.9

---

Listed below: solubility values for each entry.
assay: Solubility in phosphate buffer; assay type: physicochemical; details: read-out: Solubility
value.kind: solubility

molecule	value.kind	reported.value
Cc1ccc(NC(=O)c2cnn3c(O)cc(-c4ccc(COC(C)C)c(Cl)c4)nc23)cc1	solubility	< 1.56 µM
COCc1ccc(-c2cc(O)n3ncc(C(=O)Nc4ccc(C)cc4)c3n2)cc1	solubility	< 1.56 µM
Cc1ccc(NC(=O)c2cnn3c(O)cc(-c4ccc(COC(C)C)cc4)nc23)cc1F	solubility	< 1.56 µM
Cc1ccc(NC(=O)c2cnn3c(O)cc(-c4ccc(COC(C)C)cc4)nc23)cc1Cl	solubility	< 1.56 µM
Cc1ccc(NC(=O)c2cnn3c(O)cc(-c4ccc(F)c(Cl)c4)nc23)cc1	solubility	< 1.56 µM
